The reported numbers originate from patent US12325696B2.

This section presents compounds with their documented IC50 values.
Tested on: MCF7 ERαY537S
Assay: Inhibition of proliferation of MCF7 cell expressing ERα Y537S mutant
Type: cell-based
Conditions: Homo sapiens, 144 hours
assay endpoint: IC50

{"chem smiles": "O=C(/C=C/CN1CCC[C@@H](Oc2ccc(/C(=C(/CC(F)(F)F)c3ccccc3)c3ccc4[nH]nc(F)c4c3)cn2)C1)N1CCCC1", "assay endpoint": "IC50", "test value": "2 nM"}
{"chem smiles": "CN(C)C(=O)/C=C/CN1CCC[C@@H](Oc2ccc(/C(=C(/CC(F)(F)F)c3ccc(F)cc3)c3ccc4[nH]nc(F)c4c3)cn2)C1", "assay endpoint": "IC50", "test value": "2 nM"}
{"chem smiles": "CNC(=O)/C=C/CN1CCC[C@@H](Oc2ccc(/C(=C(/CC(F)(F)F)c3ccccc3)c3ccc4[nH]nc(F)c4c3)cn2)C1", "assay endpoint": "IC50", "test value": "2 nM"}
{"chem smiles": "CN(C)C(=O)/C=C/CNC1(COc2ccc(/C(=C(/CC(F)(F)F)c3ccccc3)c3ccc4[nH]nc(F)c4c3)cn2)CC1", "assay endpoint": "IC50", "test value": "1 nM"}
{"chem smiles": "CN(C)C(=O)/C=C/CN1CCC[C@@H](Oc2ccc(/C(=C(/CC(F)(F)F)c3ccc(C(F)(F)F)cc3)c3ccc4[nH]nc(F)c4c3)cn2)C1", "assay endpoint": "IC50", "test value": "15 nM"}
{"chem smiles": "O=C(/C=C/CN1CCC[C@@H](Nc2ccc(/C(=C(/CC(F)(F)F)c3ccccc3)c3ccc4[nH]nc(F)c4c3)cn2)C1)N1CCOCC1", "assay endpoint": "IC50", "test value": "19 nM"}
{"chem smiles": "CN(C)C(=O)/C=C/CN1CC[C@@H](Oc2ccc(/C(=C(/CC(F)(F)F)c3ccccc3)c3ccc4[nH]nc(F)c4c3)cn2)C1", "assay endpoint": "IC50", "test value": "2 nM"}
{"chem smiles": "CN(C)C(=O)/C=C/CNC1CCN(c2ccc(/C(=C(/CC(F)(F)F)c3ccccc3)c3ccc4[nH]nc(F)c4c3)cn2)CC1", "assay endpoint": "IC50", "test value": "3 nM"}
{"chem smiles": "CN(C)C(=O)/C=C/CN1CCC[C@@H](Oc2ccc(/C(=C(/CC(F)(F)F)c3ccc(C#N)cc3)c3ccc4[nH]nc(F)c4c3)cn2)C1", "assay endpoint": "IC50", "test value": "8 nM"}
{"chem smiles": "O=C(/C=C/CNC1(COc2ccc(/C(=C(/CC(F)(F)F)c3ccccc3)c3ccc4[nH]nc(F)c4c3)cn2)CC1)N1CCCC1", "assay endpoint": "IC50", "test value": "3 nM"}
{"chem smiles": "CN(C)C(=O)/C=C/CN(C)[C@H]1CCCN(c2ccc(/C(=C(/CC(F)(F)F)c3ccccc3)c3ccc4[nH]nc(F)c4c3)cn2)C1", "assay endpoint": "IC50", "test value": "3 nM"}
{"chem smiles": "O=C(/C=C/CNC1(COc2ccc(/C(=C(/CC(F)(F)F)c3ccccc3)c3ccc4[nH]nc(F)c4c3)cn2)CC1)N1CCNCC1", "assay endpoint": "IC50", "test value": "11 nM"}

* * *

Assay: Pharmacokinetics in BALB/C nude mice after intragastric administration
Type: in vivo
Settings: female, mouse, plasma, po, 30 mg/kg, read-out: Clearance rate CL/F
assay endpoint: CL/F

{"compound": "CN(C)C(=O)/C=C/CNC1(COc2ccc(/C(=C(/CC(F)(F)F)c3ccccc3)c3ccc4[nH]nc(F)c4c3)cn2)CC1 [Example 39]", "test value": "30.3 mL/min/kg"}
{"compound": "O=C(/C=C/CNC1(COc2ccc(/C(=C(/CC(F)(F)F)c3ccccc3)c3ccc4[nH]nc(F)c4c3)cn2)CC1)N1CCO[C@@H](CO)C1 [Example 42]", "test value": "111 mL/min/kg"}
{"compound": "O=C(/C=C/CNC1(COc2ccc(/C(=C(/CC(F)(F)F)c3ccccc3)c3ccc4[nH]nc(F)c4c3)cn2)CC1)N1CC(O)C1 [Example 40]", "test value": "42.1 mL/min/kg"}
{"compound": "O=C(/C=C/CN1CCC[C@@H](Oc2ccc(/C(=C(/CC(F)(F)F)c3ccccc3)c3ccc4[nH]nc(F)c4c3)cn2)C1)N1CCCC1 [Example 15]", "test value": "76 mL/min/kg"}
{"compound": "O=C(/C=C/CNC1(COc2ccc(/C(=C(/CC(F)(F)F)c3ccccc3)c3ccc4[nH]nc(F)c4c3)cn2)CC1)N1CC[C@H](O)C1 [Example 41]", "test value": "99.6 mL/min/kg"}
{"compound": "O=C(/C=C/CNC1(COc2ccc(/C(=C(/CC(F)(F)F)c3ccccc3)c3ccc4[nH]nc(F)c4c3)cn2)CC1)N1CCOCC1 [Example 1]", "test value": "50.8 mL/min/kg"}
